Target: T1, RatNectin4-His (rat, UniProt D3ZET1 31-348)
T1 construct: Immobilized on the SPR chip; not shown: His tag
T1 sequence: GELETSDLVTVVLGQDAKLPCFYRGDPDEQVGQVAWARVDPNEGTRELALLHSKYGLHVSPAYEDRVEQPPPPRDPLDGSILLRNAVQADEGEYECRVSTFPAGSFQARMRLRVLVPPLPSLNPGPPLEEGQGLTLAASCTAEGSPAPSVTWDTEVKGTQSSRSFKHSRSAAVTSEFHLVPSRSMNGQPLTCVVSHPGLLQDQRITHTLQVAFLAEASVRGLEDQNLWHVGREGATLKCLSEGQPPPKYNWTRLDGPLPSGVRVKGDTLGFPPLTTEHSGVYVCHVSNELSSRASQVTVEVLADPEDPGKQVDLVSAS
Assay: SPR, RatNectin4-His immobilized, pH 6.0
Measurement Kind: kon (M⁻¹ s⁻¹)
Answers are plain numbers, in M⁻¹ s⁻¹.

q: Tell me the measured kon of BAP-143-06-33-16 (antibody, V domains shown, Used as a conjugate with a linker payload (CAB ADC)) VH: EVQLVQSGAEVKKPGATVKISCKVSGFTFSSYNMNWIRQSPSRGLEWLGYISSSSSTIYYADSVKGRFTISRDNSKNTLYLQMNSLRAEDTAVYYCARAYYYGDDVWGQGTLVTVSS VL: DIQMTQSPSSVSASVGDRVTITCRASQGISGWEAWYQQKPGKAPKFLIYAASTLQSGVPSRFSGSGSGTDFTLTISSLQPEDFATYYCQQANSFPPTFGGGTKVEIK , please.
a: 2.57e+06
